# System: wild oat
# assay_comment: Test B postemergence herbicide test
# Assay type: in vivo, Avena fatua
# condition_context: postemergence, 500 g ai/ha; scale 0 to 100, 0 is no effect, 100 is complete control
# Experimental: At the same time, plants selected from these crop and weed species and also blackgrass (Alopecurus myosuroides Huds.), wheat (Triticum aestivum L.) and wild oat (Avena fatua L.) were treated with postemergence applications of test chemicals formulated in the same manner. […] Treated plants and controls were maintained in a greenhouse for 13 to 15 days, after which time all species were compared to controls and visually evaluated. […]
endpoint_label: Oat, Wild plant response rating
API doc: respond with a numeric literal and nothing else, no unit.

# molecule, Oat, Wild plant response rating
measured = [
    ("C#CCNC(=O)c1ccc(F)c(NC(=O)c2cc(C(C)(C)C)nn2CC)n1 [Compound 279]", 20),
]

Please give the documented Oat, Wild plant response rating of CCn1nc(C(C)(C)C)cc1C(=O)Nc1ccnc(C(=O)N2CC=CC2)c1 [Compound 282]
20

Supply recorded Oat, Wild plant response rating for CCNC(=O)c1cccc(NC(=O)c2nn(C3CCCC3)nc2CC)c1 [Compound 356] here.
20

Provide measured Oat, Wild plant response rating value, entry: CCn1nc(C(C)(C)C)cc1C(=O)Nc1nc(C(=O)N2CC=CC2)ccc1F [Compound 281]
20
